# System: Rattus norvegicus
# PROTOCOL_NOTES: In vivo inhibition of L-uM/Kg
# Format: functional
MEASURED_ENDPOINT: Activity

These solved cases illustrate the format of a correct answer.
CCCN(CCC)[C@H]1CCc2cccc(O)c2C1: 55.8 ng (g of tissue)-1
CCCN(CCC)[C@H]1CCc2cccc(C(C)=O)c2C1: 58.5 ng (g of tissue)-1
CCCN(CCC)[C@@H]1CCc2cccc(C(C)=O)c2C1: 62.1 ng (g of tissue)-1

Now consider a different compound.
Form: compound = `CCCN(CCC)[C@@H]1CCc2cccc(O)c2C1` ; Activity = 51.2 ng (g of tissue)-1
